// data source = ChEMBL document CHEMBL1148756

- Procedure details: Volume of distribution at steady state in Sprague-Dawley rat at 0.5 mg/kg, iv
- Type: ADME, organism-based
- Set-up: dose 0.5 mg/kg, route intravenous
- Test parameters: in vivo, read-out: Vdss
Measure name: Vd (L/kg)
One number for each entry, in L/kg.

Exercise: Request the reported Vd associated with Nc1nc(N)c2nc(-c3cccc(O)c3)c(-c3cccc(O)c3)nc2n1 [TG100-115]
Solution: 2.3

====

- Procedure details: Plasma concentration in Sprague-Dawley rat at 5.0 mg/kg, iv
- Type: ADME, organism-based
- Parameters: dose 5 mg/kg, route intravenous
Measure name: C0 (ng/mL)
Numbers only, in ng/mL.

Exercise: What value of measured C0 is listed for Nc1nc(N)c2nc(-c3cccc(O)c3)c(-c3cccc(O)c3)nc2n1 ?
Solution: 7730
